Source listed as patent US8569380B2.

# target-of-assay: sodium channels (cardiac INa) in isolated human atrial myocytes (Homo sapiens, UniProt Q14524)
# Sequence (Q14524 whole entry): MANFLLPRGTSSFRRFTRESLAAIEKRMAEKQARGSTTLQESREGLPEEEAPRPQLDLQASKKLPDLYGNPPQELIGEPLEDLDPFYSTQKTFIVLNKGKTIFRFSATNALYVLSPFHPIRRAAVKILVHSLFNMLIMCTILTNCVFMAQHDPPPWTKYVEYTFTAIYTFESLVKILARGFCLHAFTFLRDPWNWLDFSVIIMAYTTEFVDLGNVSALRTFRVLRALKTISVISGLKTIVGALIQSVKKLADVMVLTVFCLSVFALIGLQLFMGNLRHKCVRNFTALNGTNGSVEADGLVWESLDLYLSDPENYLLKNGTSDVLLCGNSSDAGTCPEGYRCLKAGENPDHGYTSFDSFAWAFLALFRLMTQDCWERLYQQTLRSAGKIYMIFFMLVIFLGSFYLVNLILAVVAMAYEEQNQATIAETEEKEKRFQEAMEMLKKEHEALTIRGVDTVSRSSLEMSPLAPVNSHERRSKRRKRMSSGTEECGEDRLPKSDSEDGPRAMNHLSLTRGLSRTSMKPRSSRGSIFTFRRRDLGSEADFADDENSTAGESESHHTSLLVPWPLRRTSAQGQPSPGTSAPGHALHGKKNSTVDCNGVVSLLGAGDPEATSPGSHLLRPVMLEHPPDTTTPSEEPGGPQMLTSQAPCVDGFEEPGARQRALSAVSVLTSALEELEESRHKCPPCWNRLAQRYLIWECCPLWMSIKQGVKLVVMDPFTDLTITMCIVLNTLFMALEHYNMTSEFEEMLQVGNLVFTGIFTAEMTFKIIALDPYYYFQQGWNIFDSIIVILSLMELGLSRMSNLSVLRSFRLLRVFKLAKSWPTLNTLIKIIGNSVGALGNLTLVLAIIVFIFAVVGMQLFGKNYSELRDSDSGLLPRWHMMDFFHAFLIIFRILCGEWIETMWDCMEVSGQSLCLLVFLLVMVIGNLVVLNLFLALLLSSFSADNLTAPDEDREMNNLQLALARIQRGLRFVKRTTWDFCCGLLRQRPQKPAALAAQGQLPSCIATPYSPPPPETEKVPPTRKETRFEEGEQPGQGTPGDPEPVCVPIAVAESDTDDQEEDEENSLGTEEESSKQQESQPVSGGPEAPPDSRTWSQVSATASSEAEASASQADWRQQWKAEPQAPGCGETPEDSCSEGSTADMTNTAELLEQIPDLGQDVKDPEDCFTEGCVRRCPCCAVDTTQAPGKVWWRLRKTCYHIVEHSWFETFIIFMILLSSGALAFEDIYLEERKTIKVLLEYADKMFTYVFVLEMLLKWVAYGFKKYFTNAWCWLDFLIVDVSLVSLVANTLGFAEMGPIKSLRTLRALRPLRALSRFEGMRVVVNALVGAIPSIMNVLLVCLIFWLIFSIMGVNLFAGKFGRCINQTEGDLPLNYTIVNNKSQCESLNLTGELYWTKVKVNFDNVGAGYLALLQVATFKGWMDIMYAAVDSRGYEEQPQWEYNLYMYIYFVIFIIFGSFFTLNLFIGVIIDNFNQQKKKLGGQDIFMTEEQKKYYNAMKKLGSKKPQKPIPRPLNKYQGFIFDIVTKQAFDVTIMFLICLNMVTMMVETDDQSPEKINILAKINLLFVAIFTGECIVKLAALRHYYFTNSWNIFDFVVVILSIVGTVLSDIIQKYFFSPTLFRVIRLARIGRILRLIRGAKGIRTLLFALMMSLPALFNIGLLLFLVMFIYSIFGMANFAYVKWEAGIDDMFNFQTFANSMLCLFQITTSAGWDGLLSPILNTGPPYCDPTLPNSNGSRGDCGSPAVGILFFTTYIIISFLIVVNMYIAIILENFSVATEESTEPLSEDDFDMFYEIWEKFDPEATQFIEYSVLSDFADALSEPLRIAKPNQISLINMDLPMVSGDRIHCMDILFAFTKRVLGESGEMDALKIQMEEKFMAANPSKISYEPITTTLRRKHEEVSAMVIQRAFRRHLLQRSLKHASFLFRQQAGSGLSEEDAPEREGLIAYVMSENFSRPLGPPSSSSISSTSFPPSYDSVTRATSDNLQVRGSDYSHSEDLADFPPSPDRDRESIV
# assay-explanation: Sodium channel assay, whole-cell patch clamp, cardiac INa
# Type: cell-based
# settings: pacing 0.1 Hz; approximate, >50% inhibition not obtained at highest concentration; read-out: Cardiac INa IC50 at 0.1 Hz
# maps each entry to its IC50
quantity: IC50 (µM)

INSERT INTO results (compound, val) VALUES
  ('COCCOCCOCCOCCOCCOCCOCCNC(=O)N1c2ccccc2C=Cc2ccccc21 [mPEG7-N-Carbamazepine]', 380),
  ('NC(=O)N1c2ccccc2C=Cc2ccccc21 [Carbamazepine, reference compound]', 160),
  ('COCCOCCOCCNC(=O)N1c2ccccc2C=Cc2ccccc21 [mPEG3-N-Carbamazepine]', 460);
